test: Cytotoxicity in primary rat neonatal cardiomyocytes, 5 days; type: cell-based; details: Sprague Dawley, 5-day treatment, read-out: CC50 (mean ± standard deviation) in primary rat cardiomyocytes
QUANTITY: CC50 at 5 days

So what does the record say about CC50 at 5 days for COc1nc(N)nc2c1ncn2[C@@H]1O[C@H](COP(=O)(N[C@@H](C)C(=O)OCC(C)(C)C)Oc2cccc3ccccc23)[C@@H](O)[C@@]1(C)O (stereo partly shown) ?
680 nM

* * *

test system: Primary human hepatocytes; experiment: Cytotoxicity in primary human hepatocytes, 5 days; conditions: read-out: Mean CC50 ± SD in Hepatic cells (primary); human primary hepatocytes, 5 days
Measured CC50 by item

SMILES DATA: Nc1ccn([C@H]2CC[C@@H](CO)O2)c(=O)n1
SYSTEM UNDER TEST: Primary human hepatocytes
CC50: > 100 µM

For the compound O=c1[nH]cc(F)c(=O)[nH]1 , what CC50 is on record?
> 100 µM
